A compilation of published Ki results with Metabotropic glutamate receptor 5 (Rattus norvegicus).

In the examples that follow, each entry is paired with its recorded Ki.
O=S(=O)(c1ccc(Cl)c(F)c1)c1cnc2cc(F)c(Cl)cc2c1-c1ccc(F)cc1    < 200 nM
O=S(=O)(c1cccc(F)c1)c1cnc2cc(Cl)ccc2c1-c1ccc(F)cc1    < 200 nM
CC1CCN(c2c(S(=O)(=O)c3cccc(Cl)c3)cnc3ccc(F)cc23)CC1    < 200 nM
N#Cc1cc(F)cc(S(=O)(=O)c2cnc3ccccc3c2-c2ccc(Cl)cc2)c1    < 200 nM
N#Cc1cccc(S(=O)(=O)c2cnc3ccc(F)cc3c2-c2ccc(F)cc2)c1    < 200 nM

In plain terms, O=S(=O)(NCc1ccc(Cl)cc1)c1sc2ncccc2c1-c1ccc(Cl)cc1 has a documented Ki of > 1500 nM

Entry Cc1ccc(S(=O)(=O)c2sc3ncccc3c2-c2ccc(Cl)cc2)cc1 , Ki reported as < 500 nM

Measured Ki of COc1ccc(-c2c(S(=O)(=O)c3ccc(F)cc3)cnc3c(F)cccc23)cc1 : < 200 nM

The molecule listed as O=S(=O)(c1ccc(F)cc1)c1cnc2ccc(Cl)cc2c1-c1cccc(Cl)c1 has a reported Ki of > 500 nM

Noted for O=S(=O)(c1cccc(F)c1)c1cnc2c(F)cccc2c1N1CCOCC1 : its Ki reads > 500 nM

---

Assembled from different publications: Ki for Metabotropic glutamate receptor 5 (Rattus norvegicus, UniProt P31424).

Examples with answers:
COc1cccc(S(=O)(=O)c2cnc3cc(F)ccc3c2-c2cccc(F)c2)c1    200 to 500 nM
COc1cccc(S(=O)(=O)c2cnc3ccc(F)cc3c2N2CCC(C)CC2)c1    < 200 nM

Okay, next one:
Consider Cc1cccc(S(=O)(=O)c2sc3nc(Cl)ccc3c2-c2ccc(Cl)cc2)c1 . Its measured Ki is < 500 nM

---

What follows is literature data on Ki for Metabotropic glutamate receptor 5 (Rattus norvegicus, UniProt P31424).

COc1cccc(-c2c(S(=O)(=O)c3cccc(F)c3)cnc3c(F)cccc23)c1    < 200 nM
CC1CCN(c2c(S(=O)(=O)c3cccc(C#N)c3)cnc3cc(F)ccc23)CC1    < 200 nM
O=S(=O)(c1cccc(F)c1)c1sc2ncccc2c1-c1ccc(F)cc1    < 500 nM
O=S(=O)(c1ccc(Cl)s1)c1cnc2cc(Cl)ccc2c1-c1ccc(F)cc1    200 to 500 nM
CC1CCN(c2c(S(=O)(=O)c3ccc(C#N)cc3)cnc3ccc(Cl)cc23)CC1    > 500 nM

Metabotropic glutamate receptor 5 (Rattus norvegicus, UniProt P31424) Ki of CC1CCN(c2c(S(=O)(=O)c3ccc(F)cc3)cnc3cc(Cl)ccc23)CC1 is < 200 nM

Ki value, target or system Metabotropic glutamate receptor 5 (Rattus norvegicus, UniProt P31424), for Cc1nc2c(o1)CCN(C(=O)c1ccc(C)c(C#Cc3ccccn3)c1)C2 : 16 nM

Field Ki (system: Metabotropic glutamate receptor 5 (Rattus norvegicus, UniProt P31424)) for entry N#Cc1cc(F)cc(S(=O)(=O)c2cnc3ccccc3c2-c2cccc(Cl)c2)c1 = < 200 nM

---

// molecules with reported Ki on Metabotropic glutamate receptor 5 (Rattus norvegicus, UniProt P31424), multi-publication

Study these solved cases before continuing.
COc1cccc(-c2c(S(=O)(=O)c3cccc(Cl)c3)cnc3ccc(F)cc23)c1    > 500 nM
COc1cccc(-c2c(S(=O)(=O)c3ccc(C)c(F)c3)cnc3c(F)cccc23)c1    < 200 nM
O=S(=O)(c1cc(Cl)cc(Cl)c1)c1cnc2ccc(Cl)cc2c1N1CCOCC1    > 500 nM
COc1ccc(C(=O)N2CCc3ncc(Cl)cc3C2)cc1C#Cc1ccccn1    13 nM

Readout Ki for CCOc1ccc2ncc(S(=O)(=O)c3ccccc3)c(N3CCC(C)CC3)c2c1 , test system Metabotropic glutamate receptor 5 (Rattus norvegicus, UniProt P31424), was > 500 nM

Query O=S(=O)(c1ccc(F)cc1)c1cnc2c(F)cccc2c1-c1cccc(Cl)c1 on Metabotropic glutamate receptor 5 (Rattus norvegicus, UniProt P31424); Ki returned: < 200 nM

Test item N#Cc1cccc(S(=O)(=O)c2cnc3c(F)c(Cl)ccc3c2-c2cccc(Cl)c2)c1 ; Metabotropic glutamate receptor 5 (Rattus norvegicus, UniProt P31424); reported Ki was < 200 nM

For the molecule COc1ccc(C(=O)N2Cc3ccccc3C2)cc1C#Cc1ccccn1 , the measured Ki on Metabotropic glutamate receptor 5 (Rattus norvegicus, UniProt P31424) was 4 nM

Form field, Ki with Metabotropic glutamate receptor 5 (Rattus norvegicus, UniProt P31424), item Cc1ccc(S(=O)(=O)c2cnc3ccccc3c2-c2ccc(Cl)cc2)cc1 : < 200 nM

Value sought: Ki, system Metabotropic glutamate receptor 5 (Rattus norvegicus, UniProt P31424), item Cc1cc(C)cc(S(=O)(=O)c2cnc3cc(F)ccc3c2N2CCC(C)CC2)c1 . Result: 200 to 500 nM

Form field Ki for item COc1ccc(C(=O)N2CCc3cccc(C(F)(F)F)c3C2)cc1C#Cc1ccccn1 on Metabotropic glutamate receptor 5 (Rattus norvegicus, UniProt P31424): 2 nM

Entry O=S(=O)(c1cccs1)c1sc2ncccc2c1-c1ccc(Cl)cc1 , tested on Metabotropic glutamate receptor 5 (Rattus norvegicus, UniProt P31424), has a reported Ki of 500 to 1500 nM

# Ki measured on Metabotropic glutamate receptor 5 (Rattus norvegicus, UniProt P31424) for item O=S(=O)(c1ccc(F)cc1)c1cnc2cc(Cl)ccc2c1N1CCOCC1 = > 500 nM

// molecule COc1ccc(-c2c(S(=O)(=O)c3ccc(C)c(F)c3)cnc3ccc(F)cc23)cc1 , assay Metabotropic glutamate receptor 5 (Rattus norvegicus, UniProt P31424), Ki value: < 200 nM

The molecule COc1ccc(-c2c(S(=O)(=O)c3cccc(C#N)c3)sc3ncccc23)cc1 , when measured on Metabotropic glutamate receptor 5 (Rattus norvegicus, UniProt P31424), yielded Ki of < 500 nM

// assay Metabotropic glutamate receptor 5 (Rattus norvegicus, UniProt P31424), entry CCOC(=O)CC(=O)c1sc2ncccc2c1-c1ccc(Cl)cc1 , Ki value = < 500 nM

O=S(=O)(c1ccc(F)c(F)c1)c1cnc2c(F)cccc2c1-c1ccc(Cl)cc1 tested on Metabotropic glutamate receptor 5 (Rattus norvegicus, UniProt P31424) gave Ki: < 200 nM

---

Endpoint summary: pKi, system: Metabotropic glutamate receptor 5 (Rattus norvegicus, UniProt P31424), multiple sources combined.
pKi: −log10 of the molar value.

Before answering, review these 6 worked examples.
O=C(c1ccc(C(F)(F)F)c(C#Cc2ccccn2)c1)N1Cc2ccccc2C1    8.30
O=S(=O)(c1ccc(Cl)c(Cl)c1)c1cnc2c(Cl)cccc2c1-c1cccc(Cl)c1    > 6.70
O=C(c1ccc(OCC2CC2)c(C#Cc2ccccn2)c1)N1Cc2ccccc2C1    6.72
Cc1ccc2ncc(S(=O)(=O)c3ccccc3)c(N3CCC(C)CC3)c2c1    < 6.30
Cc1ccc2ncc(S(=O)(=O)c3ccc(C)c(F)c3)c(N3CCOCC3)c2c1    < 6.30
Cc1ccc2ncc(S(=O)(=O)c3cccc(Cl)c3)c(N3CCOCC3)c2c1    < 6.30

Noted for COc1ccc(S(=O)(=O)c2cnc3cc(F)ccc3c2-c2ccc(F)cc2)cc1 : its pKi reads 6.30 to 6.70

// sample Cc1ccc(-c2c(S(=O)(=O)c3cccc(Cl)c3)sc3ncccc23)cc1 , its pKi was > 6.30

Recorded result, N#Cc1cc(F)cc(S(=O)(=O)c2cnc3ccccc3c2-c2ccc(F)c(F)c2)c1 , pKi: > 6.70

So for Cc1ccc2ncc(S(=O)(=O)c3cccc(Cl)c3)c(N3CCC(C)CC3)c2c1 , the logged pKi turned out to be > 6.70

The compound identified as CC1CCN(c2c(S(=O)(=O)c3cccc(F)c3)cnc3c(F)cccc23)CC1 registered its pKi at 6.30 to 6.70

Looking up O=S(=O)(c1ccc(F)c(Cl)c1)c1cnc2ccc(Cl)cc2c1N1CCOCC1 , I see its pKi listed as < 6.30

Entry under test: O=S(=O)(c1ccc(Cl)c(F)c1)c1cnc2cc(F)c(Cl)cc2c1-c1ccc(Cl)cc1 . Its pKi was > 6.70

Lab note: O=S(=O)(c1ccc(F)c(Cl)c1)c1cnc2c(F)cccc2c1-c1ccc(F)cc1 gave pKi of > 6.70

---

From various publications: pKi for Metabotropic glutamate receptor 5 (Rattus norvegicus).
pKi: −log10 of the molar value.

COc1ccc(-c2c(S(=O)(=O)c3ccc(F)c(F)c3)cnc3c(F)cccc23)cc1    > 6.70

get_value(item= O=C(c1ccc(Cl)c(C#Cc2ccccn2)c1)N1CCc2c(F)ccc(F)c2C1 , readout=pKi) returns 9.70

Memo: CCOC(=O)N1CCN(c2c(S(=O)(=O)c3ccc(Cl)cc3)cnc3ccccc23)CC1 , reported pKi: < 6.30

COc1ccc(S(=O)(=O)c2cnc3cc(F)ccc3c2N2CCC(C)CC2)cc1OC yielded pKi of > 6.70

For this compound ( Cc1ccc(S(=O)(=O)c2cnc3c(F)cccc3c2-c2ccc(F)cc2)cc1F ), measured pKi is > 6.70

Lab note: CC1CCN(c2c(S(=O)(=O)c3cc(F)cc(C#N)c3)sc3ncccc23)CC1 gave pKi of > 6.30

Per the record, Cc1ccc(S(=O)(=O)c2cnc3cc(Cl)ccc3c2N2CCC(C)CC2)cc1F has pKi of > 6.70

For this compound ( O=C(c1ccc(Cl)c(C#Cc2ccccn2)c1)N1CCc2[nH]ncc2C1 ), measured pKi is 8.40

Recorded pKi (compound Cc1ccc(S(=O)(=O)c2cnc3c(F)cccc3c2-c2ccc(Cl)cc2)cc1F ): > 6.70

pKi in this record for COc1ccc(Nc2c(S(=O)(=O)c3ccc(C)cc3)cnc3ccccc23)cc1OC : < 6.30

Field pKi (entry CCOC(=O)C1CCCN(c2c(S(=O)(=O)c3ccccc3)cnc3ccc(CC)cc23)C1 (stereo not shown) ) reads < 6.30

What the record says about O=C(CCc1cccs1)c1sc2ncccc2c1-c1ccc(F)cc1 : pKi is 5.82 to 6.30

Recorded result, COc1ccc(S(=O)(=O)c2cnc3ccc(F)cc3c2-c2cccc(Cl)c2)cc1OC , pKi: < 6.30

pKi reading for N#Cc1cccc(S(=O)(=O)c2cnc3cc(F)ccc3c2-c2cccc(Cl)c2)c1 : > 6.70

Value of pKi reported for the compound Cc1ccc(S(=O)(=O)c2cnc3ccccc3c2N2CCC(C)CC2)cc1C is > 6.70

Recorded pKi (compound CN(Cc1ccc(F)cc1)C(=O)c1sc2ncccc2c1-c1ccc(Cl)cc1 ): < 5.82

Looking up COc1cccc(-c2c(S(=O)(=O)c3cc(Cl)cc(Cl)c3)cnc3c(F)cccc23)c1 , I found its pKi recorded as > 6.70

Record COc1ccc(S(=O)(=O)c2cnc3cc(F)ccc3c2-c2cccc(F)c2)cc1Cl , field pKi: > 6.70

Reported pKi ( Cc1ccc(S(=O)(=O)c2cnc3ccc(F)cc3c2N2CCOCC2)cc1F ) = < 6.30

// recorded pKi for COc1ccc(C(=O)N2CCc3ccccc3C2)cc1C#Cc1ccccn1 : 8.52

Value of pKi reported for the compound CC1CCCN(c2c(S(=O)(=O)c3cccc(C#N)c3)sc3ncccc23)C1 (stereo not shown) is > 6.30
